Where do the numbers come from? From patent EP4039268A1.

Overview of reported Mean normalized OD across a group of binders:
- TEST TARGET: T1, full-length trimeric SARS-CoV-2 Spike protein (Spike-H6) (SARS-CoV-2, N-glycosylated (22 N-glycosylation sites))
- T1 construct: also called trimeric Spike; full-length Spike-H6
- TEST DESCRIPTION: ELISA screen
MEASURED ENDPOINT: Mean normalized OD

- Lgals4_1 CRD-mouse IgG2a-Fc fusion protein (Fc fusion) YKRPIPGGLSVGMSVYIQGMAKENMRRFHVNFAVGQDDGADVAFHFNPRFDGWDKVVFNTMQSGQWGKEEKKKSMPFQKGKHFELVFMVMPEHYKVVVNGNSFYEYGHRLPVQMVTHLQVDGDLELQSINFLGGGSGGGSGGGS: 0.152 OD
- Lgals12_2 CRD-mouse IgG2a-Fc fusion protein (Fc fusion) CSRALPRGLWPGQVIVVRGLVLKEPKDFTLSLKDGTTHVPVTLRASFTDRTLAWVSSWGRKKLISAPFLFHPQRFFEVLLLCQEGGLKLALNGQGLGATSLDQKALEQLRELRISGNVHLYCVHCGGGSGGGSGGGS: 0.025 OD
- Cd72 CRD-mouse IgG2a-Fc fusion protein (Fc fusion) CCPCGWIPYQERCFYISHTLGSLEESQKYCTSLSSKLAAFDEPSKYYYEVSLPSGLEELLDRSKSYWIQMSKKWRQDSDSQSRHCVRIKTYYQKWERTISKCAELHPCICESGGGSGGGSGGGS: 0.033 OD
- Clec3a CRD-mouse IgG2a-Fc fusion protein (Fc fusion) VHKKCYLASEGLKHYHEANEDCISKGGTLVVPRNSDEINALRDYGKRSLPGVNDFWLGINDMVTEGKFLDVHGFAVSFLNWDRAQPSGGKRENCVLFSQSAQGKWSDEACRSSKRYICEGGGSGGGSGGGS: 0.098 OD
